- assayedTarget: Epidermal growth factor receptor (Homo sapiens) (UniProt P00533)
- Sequence (P00533 whole entry, looked up): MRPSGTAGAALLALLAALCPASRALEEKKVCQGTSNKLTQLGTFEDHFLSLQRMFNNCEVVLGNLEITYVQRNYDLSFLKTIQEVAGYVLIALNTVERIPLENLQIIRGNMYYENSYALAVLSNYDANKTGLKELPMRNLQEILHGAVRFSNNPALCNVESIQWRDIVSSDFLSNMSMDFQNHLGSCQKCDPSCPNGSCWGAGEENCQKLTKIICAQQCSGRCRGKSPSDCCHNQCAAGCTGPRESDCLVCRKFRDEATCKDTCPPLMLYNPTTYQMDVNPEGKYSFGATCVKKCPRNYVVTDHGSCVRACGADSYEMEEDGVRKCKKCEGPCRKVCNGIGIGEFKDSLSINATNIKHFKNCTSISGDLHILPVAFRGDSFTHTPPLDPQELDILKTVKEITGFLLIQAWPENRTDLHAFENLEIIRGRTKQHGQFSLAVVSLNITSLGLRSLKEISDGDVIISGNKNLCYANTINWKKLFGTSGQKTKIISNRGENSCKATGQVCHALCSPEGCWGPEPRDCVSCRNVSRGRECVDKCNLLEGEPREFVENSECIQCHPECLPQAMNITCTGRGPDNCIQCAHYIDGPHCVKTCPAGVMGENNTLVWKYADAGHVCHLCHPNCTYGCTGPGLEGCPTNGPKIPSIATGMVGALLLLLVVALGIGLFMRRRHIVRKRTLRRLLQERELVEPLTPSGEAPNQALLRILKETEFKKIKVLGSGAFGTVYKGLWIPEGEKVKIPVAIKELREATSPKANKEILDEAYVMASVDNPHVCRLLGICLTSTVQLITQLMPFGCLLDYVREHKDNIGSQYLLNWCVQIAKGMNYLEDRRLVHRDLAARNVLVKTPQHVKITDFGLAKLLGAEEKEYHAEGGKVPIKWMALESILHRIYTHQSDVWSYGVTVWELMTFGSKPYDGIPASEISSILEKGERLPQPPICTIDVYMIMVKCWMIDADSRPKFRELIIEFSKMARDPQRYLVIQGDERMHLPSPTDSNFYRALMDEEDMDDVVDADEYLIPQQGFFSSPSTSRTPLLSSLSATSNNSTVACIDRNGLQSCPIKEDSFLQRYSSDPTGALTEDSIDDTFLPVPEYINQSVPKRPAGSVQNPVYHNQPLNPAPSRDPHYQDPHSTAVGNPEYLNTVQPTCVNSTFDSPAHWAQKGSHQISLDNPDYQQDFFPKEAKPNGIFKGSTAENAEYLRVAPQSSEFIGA
- protocolText: EGFR binders on small-molecule microarrays, primary screen, biochemical, small-molecule microarray, 635 nm fluorescence (AID 1104);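 also: score merges 667 nm emission intensity with spot signal to noise over triplicate slides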
- assaySetup: EGFR binding, higher = more signal
# if value of composite z-score reaches -0.5, tag YES; if it stays below, tag NO

INSERT INTO results (compound, assignedclass) VALUES
  ('COCCOC(=O)N1C(=O)[C@@]2(c3cc(C#CC4(O)CCCCCC4)ccc31)[C@H](c1ccccc1OCCO)N1[C@H](c3ccccc3)[C@H](c3ccccc3)OC(=O)[C@H]1[C@@H]2C(N)=O', 'YES'),
  ('C[N+](C)(C)CCCC[C@@H]1NC(=O)[C@@H]2C[C@H](C(=O)O)[C@H](c3ccc(O)cc3)N2C1=O', 'NO'),
  ('COc1ccc(C(O)C2C=CC3C(=O)N(c4ccccc4)C(=O)C3N2Nc2ccccc2)cc1OCc1ccccc1 (stereo unspecified)', 'YES');

Query: # bool: composite z-score of O=C1C[C@]2(c3ccc([N+](=O)[O-])cc3)C(=O)N(Cc3ccccc3)c3cc(CO)ccc3[C@H]2N1CC12CC3CC(CC(C3)C1)C2 >= -0.5
Result: YES

Query: I'd appreciate it if you could say whether COCCCNC(=O)[C@]1(Cc2ccccc2N=[N+]=[N-])N=C(c2ccc(OCCCO)cc2)O[C@@H]1c1ccccc1N=[N+]=[N-] has composite z-score at least equal to -0.5.
Result: YES

Query: Identify whether the reported composite z-score of the following compound is -0.5 or greater: O=C1O[C@@H](c2ccccc2)[C@@H](c2ccccc2)N2[C@@H](c3ccccc3OCCO)[C@]3(C(=O)Nc4ccccc43)[C@@H](C(=O)NC[C@H](O)c3ccccc3)[C@H]12
Result: NO

* * *

- protocolText: A549 lung cancer cell viability effects, profiling panel, resazurin fluorescence, 24 h, PK04 Diversity Set (AID 1171); also: test concentration not given here
- assaySetup: higher = more signal, called active from +8 up or from −8 down
Activity calls are given as the source filed them.
testReadout: z-score

INSERT INTO assay_data (compound, testreadout, recordedvalue) VALUES
  ('CC(C)CN1C(=O)[C@@]2(Cc3ccccc31)c1ccccc1C(=O)N(Cc1ccccc1C(F)(F)F)[C@H]2c1ccc(CO)cc1', 'z-score', '-0.236 (inactive)');

Give one value of z-score per listed compound.
1. COc1ccc(NN2C(C(O)c3ccccn3)C=CC3C(=O)N(C4CCCCC4)C(=O)C32)cc1 (centres undefined)
2. CCOC(=O)C[C@H]1[C@H](OC(=O)c2ccccc2-c2ccccc2)[C@@H](NC(=O)c2ccc3ccccc3n2)c2cc(OCCCO)ccc2N1C(=O)c1ccc2ccccc2n1
3. CCOC(=O)C[C@H]1[C@H](OC(=O)c2ccccc2-c2ccccc2)[C@@H](NC(=O)CC(C)C)c2cc(OCCCO)ccc2N1C(=O)c1ccc2ccccc2n1

Result:
1. 0.342 (inactive)
2. 0.545 (inactive)
3. -0.109 (inactive)

* * *

- protocolText: basal RPMI8226 mitochondrial membrane potential changes, profiling panel, cell-based, JC-1 fluorescence, 24 h, 100 nL compound (AID 1169); also: test concentration not given here
- assaySetup: RPMI8226 myeloma, JC-1 mitochondrial potential fluorescence, higher = more signal
testReadout: z-score

Answered cases to consult:
INSERT INTO assay_data (compound, recordedvalue) VALUES
  ('COCCCNC(=O)[C@]1(Cc2ccccc2CN=[N+]=[N-])N=C(c2ccc(OCCCO)cc2)O[C@@H]1c1ccccc1', -1.15),
  ('CC(=O)NCCCC[C@@H]1NC(=O)[C@@H]2C[C@H](C(=O)O)[C@H](c3ccc(O)cc3)N2C1=O', 0.667),
  ('CN1C(=O)C2C=CC(C(O)C3CCCCC3)N(N3CCCCC3)C2C1=O (stereo not drawn)', -0.763),
  ('O=C(O)[C@H](Cc1ccccc1)n1cc(-c2ccccn2)nn1', -0.166),
  ('CC(C)c1ccc(NN2C(C(O)c3ccco3)C=CC3C(=O)N(c4ccccc4)C(=O)C32)cc1 (stereo not drawn)', 0.473);

Count: 3. Required value per item: z-score.
1. C=C[C@H](COC(C)=O)NS(=O)(=O)c1ccc(Br)cc1
2. O=C1O[C@@H](c2ccccc2)[C@@H](c2ccccc2)N2[C@@H](c3ccccc3OCCO)[C@]3(C(=O)Nc4ccc(C#CC5=CCCCC5)cc43)[C@@H](C(=O)NC[C@H](O)c3ccccc3)[C@H]12
3. C[C@H]1C2=C3C(CC[C@H]4C(OCc5ccc(F)cc5C(F)(F)F)OC[C@](C)([C@@H]34)N(C(=O)OC(C)(C)C)C2)C2COC(=O)OCC21 (stereo partly drawn)

Result:
1. -0.616
2. -0.664
3. -0.325

Source: PubChem BioAssay
